System: CHO
Assay: % viability of CHO cells (MTT); higher = less toxic
Conditions: 20 µM; 48 h
Reported % viability of CHO cells values follow for various compounds

# compound, % viability of CHO cells, %
measured = [
    ("NS(=O)(=O)c1ccc(NC(=O)NC(c2ccccc2)c2ccccc2)cc1", 58.6),
    ("CCc1cc(Nc2cc(=O)n(CCN3CCN(C(=O)c4ccccc4)CC3)c(=O)[nH]2)ccc1C", 103),
    ("CC(C)(C)c1ccc(Oc2ccc(N)cc2)cc1", 58.8),
    ("O=C(N[C@H](CCS)C(=O)N[C@H](Cc1ccccc1)C(=O)O)c1cc2ccccc2[nH]1", 74.3),
    ("O=S(=O)(NCB(O)O)c1cc2c(Cl)ccc(Cl)c2s1", 59.2),
    ("O=C(/C(=C/c1ccc(Cl)cc1Cl)n1ccnc1)c1ccc(Cl)cc1", 113),
    ("Cc1nc(-c2ccc(C3N(C)c4ccc(F)cc4C(=O)N3c3ccccc3)s2)cs1 (stereo not given)", 95.9),
    ("Fc1ccc2c(/C=C/c3cccnc3)c[nH]c2c1", 117),
    ("c1ccc(Cn2c(-c3ccccn3)nc3ccccc32)cc1", 117),
    ("NC(=O)c1cnc2ccc(S(=O)(=O)c3ccccc3)cc2c1Nc1ccc(O)cc1", 58.1),
]

Data provenance is the supplement of paper PMC7801607.
